Entries and their kon
Target: T1, Extracellular domain of cyno PD1 (cPD1-ECD) (Macaca fascicularis (cynomolgus))
T1 construct: Expressed with a hexahistidine tag or as Fc fusion; also called cynoPD1-ECD; cynoPD-1-ECD
T1 chain: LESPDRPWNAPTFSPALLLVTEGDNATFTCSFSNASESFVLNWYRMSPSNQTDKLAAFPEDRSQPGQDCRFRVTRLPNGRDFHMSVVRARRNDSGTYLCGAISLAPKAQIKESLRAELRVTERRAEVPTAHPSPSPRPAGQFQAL
Assay: SPR ProteOn, captured mAb, cynoPD1-ECD analyte;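 note: ProteOn XPR36 SPR with antibodies held by anti-IgG Fc on a GLC chip, kinetic constants obtained by fitting to a Langmuir 1:1 binding model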
API: value field is a number in M⁻¹ s⁻¹; no unit string.

PD1B197 (antibody, V domains shown, also called PD1H163/PD1L185) VH: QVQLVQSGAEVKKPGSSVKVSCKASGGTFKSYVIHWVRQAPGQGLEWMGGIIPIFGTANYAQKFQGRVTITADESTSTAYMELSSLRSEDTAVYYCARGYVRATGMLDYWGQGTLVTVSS VL: EIVLTQSPATLSLSPGERATLSCRASQSVSNYLAWYQQKPGQAPRLLIYDASNRATGIPARFSGSGSGTDFTLTISSLEPEDFAVYYCQQRAYWPLTFGQGTKVEIK : 275000
PD1B199 (antibody, V domains shown, also called PD1H164/PD1L86) VH: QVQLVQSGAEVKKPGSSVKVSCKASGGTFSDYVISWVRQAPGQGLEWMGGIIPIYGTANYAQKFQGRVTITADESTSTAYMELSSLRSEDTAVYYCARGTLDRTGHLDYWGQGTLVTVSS VL: EIVLTQSPATLSLSPGERATLSCRASQSVSSYLAWYQQKPGQAPRLLIHDASTRATGIPARFSGSGSGTDFTLTISSLEPEDFAVYYCQQRNYWPLTFGQGTKVEIK : 340000
PD1B194 (antibody, V domains shown, also called PD1H170/PD1L71) VH: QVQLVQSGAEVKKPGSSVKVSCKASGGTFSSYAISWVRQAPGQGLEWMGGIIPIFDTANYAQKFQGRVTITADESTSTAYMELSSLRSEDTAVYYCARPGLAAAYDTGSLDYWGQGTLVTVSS VL: EIVLTQSPATLSLSPGERATLSCRASQSVRSYLAWYQQKPGQAPRLLIYDASYRATGIPARFSGSGSGTDFTLTISSLEPEDFAVYYCQQRDYWPLTFGQGTKVEIK : 322000

Now for a further binder.
Name the recorded kon of the item PD1B196 (antibody, V domains shown, also called PD1H170/PD1L148) VH: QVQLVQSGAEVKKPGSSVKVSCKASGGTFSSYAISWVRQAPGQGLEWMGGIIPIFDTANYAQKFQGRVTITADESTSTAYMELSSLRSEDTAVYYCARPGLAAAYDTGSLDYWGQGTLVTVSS VL: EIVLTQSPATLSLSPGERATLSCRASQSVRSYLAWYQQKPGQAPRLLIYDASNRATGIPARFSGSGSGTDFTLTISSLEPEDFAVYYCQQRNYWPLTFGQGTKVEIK in your answer.
303000

Value source: patent US20210277110A1
